# melting point values compiled below

Before answering, review these 3 worked examples.
- CNC(=O)[C@H]1O[C@@H](n2cnc3c(NCc4cc(Cl)ccc4OCc4cccc(OC)c4)ncnc32)[C@H](O)[C@@H]1N: 102 to 108 °C
- CNC(=O)[C@H]1O[C@@H](n2cnc3c(NCc4cc(Cl)ccc4OCCN4CCOCC4)ncnc32)[C@H](O)[C@@H]1N: 99 to 108 °C
- CNC(=O)[C@H]1O[C@@H](n2cnc3c(NCc4cc(Cl)ccc4OCC4CCCC4)ncnc32)[C@H](O)[C@@H]1N: 110.6 to 116.2 °C

Read the next record carefully.
// query melting point value for entry `CNC(=O)[C@H]1O[C@@H](n2cnc3c(NCc4cc(Cl)ccc4OCc4ccccc4C)ncnc32)[C@H](O)[C@@H]1N`
76 to 80 °C
